Assay: NCI Yeast Anticancer Drug Screen. Data for the sgs1 mgt1 strain (AID 161);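 note: 0% = growth of cultures given vehicle only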
Settings: S. cerevisiae sgs1 mgt1 strain, at 50.0 µM, active compounds read high
About 79,000 compounds went through this panel and 15% of them were active in at least one assay; those are over-represented in the sample as a whole.
Readings of growth inhibition for the listed compounds

compound	growth inhibition (%)
CCN(CC)CCOC(=O)C1c2ccccc2Oc2ccccc21	9.1
O=C(c1ccc2c(c1)C(=O)OC2=O)c1ccc2c(c1)C(=O)OC2=O	-17.8
N#CCC(=O)NCCc1c[nH]c2ccccc12	-14.7
CC(C)OC(=O)NC1CCC2CCCCC2C1 (stereo not given)	-8.3
CC1(C)OC(CP(=O)(c2ccccc2)c2ccccc2)C(CP(=O)(c2ccccc2)c2ccccc2)O1 (stereo not given)	15.4
CCOC(=O)Cc1nc2sc3c(c2c(=O)[nH]1)CCCC3	22.4
CC(C)C(N)(C(=O)O)c1ccccc1 (stereo not given)	-51.5
O=C(C[n+]1cccc(Br)c1)c1ccc(F)cc1	9.6
O=C(O)C1C(Br)C(Br)C1C(=O)O (stereo not given) (tested in a mixture with another compound)	-12.2
C1CCN(c2nsc(N3CCCCC3)n2)CC1	2.95
O=C1c2cccc3cc([N+](=O)[O-])cc(c23)C(=O)N1Cc1ccco1	32.2
NC(=O)n1ccc(CC(O)(C(F)(F)F)C(F)(F)F)n1	-2.55
CN(C)/C=N/NC(=O)C(O)(c1ccccc1)c1ccccc1	-7.85
CCC(C(=O)O)C(=O)O	-23.7
COc1cc2c(c(OC)c1OC)-c1ccc(OC)c(=O)cc1C(NC(=O)CCCCCNc1ccc(N=[N+]=[N-])cc1[N+](=O)[O-])CC2 (stereo not given)	45
O=NNc1ccc(S(=O)(=O)c2ccccc2)cn1	-27.9
CCCNC(=S)NN1C2CSC1CS2	-1.35
CC(C)(C)C(=O)Oc1ccc[nH]c1=O	2.35
Cc1cc2c(=O)cc(-c3ccc(Cl)cc3Cl)oc2c(C(=O)O)c1C	9
N#Cc1ccc(NN=NCCCCCl)cc1	14.8
COCCCNC1=C(C#N)C(=O)NC2(CCCC2)S1	-18.5
CC12CCC(C/C1=N\NC(N)=O)C2(C)C (stereo not given)	-18.2
COc1nc2n[nH]nc2c(=O)n1C	-13.1
CN(C)CCN(C)CC(C)(C)C(=O)/C=C/c1ccccc1	-21.6
CC(CCC(=O)O)[C@H]1CCC2[C@H]3C(CC(=O)[C@@]21C)[C@@]1(C)CCC(O)C[C@H]1C[C@@H]3O (stereo not given in full)	5.9
